Hello, the source for this data is patent US6576662B2, in case you need it.

System: M14
Assay: in vitro anti-cancer screen, Sulforhodamine B method
Type: cell-based, human
Conditions: MELANOMA: M14; 48 h incubation; read-out: GROWTH INHIBITION (GI 50)
OBSERVABLE: GI50 (µM)

[[record]]
compound = "CC(=O)OCC1(C)C(OC(C)=O)CCC2(C)C(CC(Sc3ccccc3)C3=CCOC3=O)C3(CCC12)CO3 (stereo not shown)"
observable = "GI50"
test_result = 3

[[record]]
compound = "C=C1CCC2C(C)(COC(C)=O)C(OC(C)=O)CCC2(C)C1CC(Sc1ccccc1)C1=CCOC1=O (stereo not shown)"
observable = "GI50"
test_result = 4

[[record]]
compound = "C=C1CCC2C(C)(COC(C)=O)C(OC(C)=O)CCC2(C)C1CC(NCc1ccc(OC)cc1)C1=CCOC1=O (stereo not shown)"
observable = "GI50"
test_result = 5.5

[[record]]
compound = "C=C1CCC2C(C)(COC(C)=O)C(OC(C)=O)CCC2(C)C1CC(NCc1ccccc1)C1=CCOC1=O (stereo not shown)"
observable = "GI50"
test_result = 5


* * *

Test system: SW-620
Test: in vitro anti-cancer screen, Sulforhodamine B method
Assay type: cell-based, human
Settings: Homo sapiens; COLON: SW-620; 48 h incubation; read-out: GROWTH INHIBITION (GI 50)
OBSERVABLE: GI50 (nM)

[[record]]
compound = "C=C1CCC2[C@](C)(CO)[C@H](O)CC[C@]2(C)[C@H]1CC(NCc1ccccc1)C1=CCOC1=O (some centres unmarked)"
test_result = 2500

[[record]]
compound = "C=C1CCC2[C@]3(C)COC(C)(c4ccccc4)OC3CC[C@]2(C)[C@H]1CC(NC(Cc1ccccc1)C(=O)OC)C1=CCOC1=O (some centres unmarked)"
test_result = 3000

[[record]]
compound = "C=C1CCC2[C@]3(C)COC(C)(c4ccccc4)O[C@@H]3CC[C@]2(C)[C@H]1CC(C1=CCOC1=O)N1CCCC1C(=O)OC (some centres unmarked)"
test_result = 2000

[[record]]
compound = "C=C1CCC2[C@]3(C)COC(C)(c4ccccc4)OC3CC[C@]2(C)[C@H]1CC(NCc1ccccc1)C1=CCOC1=O (some centres unmarked)"
test_result = 2000

[[record]]
compound = "C=C1CCC2[C@](C)(CO)[C@H](O)CC[C@]2(C)[C@H]1CC(C1=CCOC1=O)n1cc(F)c(=O)[nH]c1=O (some centres unmarked)"
test_result = 3500


* * *

Test system: Human lymphocytes
Assay: Lymphocyte proliferation, tritiated thymidine incorporation
Assay type: cell-based
Settings: Concentration 1 μM; human lymphocytes with Phytohemagglutitin A
// classify: if (Stimulation Index (SI) < 60) True else False

[[record]]
compound = "C=C1CCC2C(C)(COC(C)=O)C(OC(C)=O)CCC2(C)C1CC(NCc1ccccc1)C1=CCOC1=O (centres unmarked) [Example 1]"
category_label = "False"

[[record]]
compound = "C=C1CCC2C(C)(COC(C)=O)C(OC(C)=O)CCC2(C)C1CC(NC(Cc1ccccc1)C(=O)OC)C1=CCOC1=O (centres unmarked) [Example 6]"
category_label = "False"

[[record]]
compound = "C=C1CCC2C(C)(COC(C)=O)C(OC(C)=O)CCC2(C)C1CC(NC(CC[Se]C)C(=O)OC)C1=CCOC1=O (centres unmarked) [Example 12]"
category_label = "True"

[[record]]
compound = "C=C1CCC2C(C)(COC(C)=O)C(OC(C)=O)CCC2(C)C1CC(Sc1ccccc1)C1=CCOC1=O (centres unmarked) [Example 58]"
category_label = "False"

[[record]]
compound = "C=C1CCC2[C@](C)(CO)[C@H](O)CC[C@]2(C)[C@H]1CC(NCc1ccccc1)C1=CCOC1=O (some centres unmarked) [Example 18]"
category_label = "False"

[[record]]
compound = "C=C1CCC2[C@]3(C)COC(C)(c4ccccc4)OC3CC[C@]2(C)[C@H]1CC(NCc1ccccc1)C1=CCOC1=O (some centres unmarked) [Example 21]"
category_label = "True"

[[record]]
compound = "C=C1CCC2[C@](C)(CO)[C@H](O)CC[C@]2(C)[C@H]1CC(Nc1cccc(C)c1C)C1=CCOC1=O (some centres unmarked) [Example 28]"
category_label = "True"

